Assay: PK parameters, oral route, cynomolgus monkey
Format: in vivo
Conditions: plasma, 10-15 mg/kg, read-out: Cmax

chemical-smiles: N[C@H](C(=O)NO)[C@@H](CC1CCCC1)C(=O)N1CCN(Cc2ccc3c(c2)OCO3)CC1
Cmax: 3130 ng/mL

---

Catalogue of clearance readings, one per entry.
Assay: PK parameters in rats, iv route
Settings: rat, in vivo, 10-15 mg/kg

compound: CC(C)C[C@@H](C(=O)N1CCOCC1)[C@H](N)C(=O)NO [Example 10]
clearance, mL/min/kg: 24
//
compound: N[C@H](C(=O)NO)[C@@H](CC1CCCC1)C(=O)N1CCN(Cc2ccc3c(c2)OCO3)CC1 [Example 27]
clearance, mL/min/kg: 23
//
compound: COc1ccc(CCC[C@@H](C(=O)N2CCOCC2)[C@@H](C(=O)NO)N(C)C)cc1 [Example 19]
clearance, mL/min/kg: 27
//
compound: Cc1ccc(S(=O)(=O)N[C@H](C(=O)NO)[C@@H](CC(C)C)C(=O)N2CCOCC2)cc1 [Example 12]
clearance, mL/min/kg: 39

---

Assay: PK parameters in rats, iv route
Conditions: rat, in vivo, 10-15 mg/kg
measured-quantity: AUC

chemical-smiles: CC(C)C[C@@H](C(=O)N1CCOCC1)[C@H](N)C(=O)NO
measured-quantity: AUC
measured-result: 11.1 µg·h/mL

chemical-smiles: COc1ccc(CCC[C@@H](C(=O)N2CCOCC2)[C@@H](C(=O)NO)N(C)C)cc1
measured-quantity: AUC
measured-result: 9.38 µg·h/mL

chemical-smiles: N[C@H](C(=O)NO)[C@@H](CC1CCCC1)C(=O)N1CCN(Cc2ccc3c(c2)OCO3)CC1
measured-quantity: AUC
measured-result: 11.3 µg·h/mL

chemical-smiles: Cc1ccc(S(=O)(=O)N[C@H](C(=O)NO)[C@@H](CC(C)C)C(=O)N2CCOCC2)cc1
measured-quantity: AUC
measured-result: 6.58 µg·h/mL

---

Target: Human stromelysin-1-255 (MMP-3) (Homo sapiens, UniProt P08254)
Sequence (P08254 100-255 limits assumed): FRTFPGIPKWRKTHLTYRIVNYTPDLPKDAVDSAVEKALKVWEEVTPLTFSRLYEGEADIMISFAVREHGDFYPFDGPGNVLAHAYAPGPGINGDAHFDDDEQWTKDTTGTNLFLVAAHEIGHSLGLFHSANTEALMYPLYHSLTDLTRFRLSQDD
Catalogue of Ki readings, one per entry.
measured-quantity: Ki (nM)

chemical-smiles: COc1ccc(S(=O)(=O)N[C@H](C(=O)NO)[C@@H](CC2CCCC2)C(=O)N2CCCCC2)cc1
measured-quantity: Ki
measured-result: 145
--
chemical-smiles: CS(=O)(=O)N[C@H](C(=O)NO)[C@@H](CC1CCCC1)C(=O)N1CCN(Cc2ccc3c(c2)OCO3)CC1
measured-quantity: Ki
measured-result: 140
--
chemical-smiles: COc1ccc(CCC[C@@H](C(=O)N2CCN(c3ccccn3)CC2)[C@H](N)C(=O)NO)cc1
measured-quantity: Ki
measured-result: 760
--
chemical-smiles: COc1ccc(CCC[C@@H](C(=O)N2CCOCC2)[C@@H](C(=O)NO)N(C)C)cc1
measured-quantity: Ki
measured-result: 1100
--
chemical-smiles: N[C@H](C(=O)NO)[C@@H](CC1CCCC1)C(=O)N1CCCCC1
measured-quantity: Ki
measured-result: 730

---

Biological target: Human collagenase (MMP-1) (Homo sapiens, UniProt P03956)
Sequence (P03956 101-269): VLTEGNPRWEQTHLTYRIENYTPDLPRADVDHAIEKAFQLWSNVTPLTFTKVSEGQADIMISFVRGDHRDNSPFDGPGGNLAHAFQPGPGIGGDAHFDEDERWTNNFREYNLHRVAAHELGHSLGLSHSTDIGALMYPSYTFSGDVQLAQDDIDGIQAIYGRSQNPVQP
Kindly apply the following: 1 (yes) if Ki is less than 0.2 µM, 0 (no) in every other case.

chemical-smiles: COc1ccc(CCC[C@@H](C(=O)N[C@@H](C)C2CCCCC2)[C@H](N)C(=O)NO)cc1
class-assignment: 0 (no)
//
chemical-smiles: CC(C)(C)OC(=O)N[C@H](C(=O)NO)[C@@H](CC1CCCC1)C(=O)N1CCN(Cc2ccc3c(c2)OCO3)CC1
class-assignment: 1 (yes)
//
chemical-smiles: C[C@@H](NC(=O)[C@H](CC1CCCC1)[C@H](N)C(=O)NO)C1CCCCC1
class-assignment: 1 (yes)
//
chemical-smiles: O=C(NO)[C@@H](NS(=O)(=O)c1ccc(F)cc1)[C@@H](CC1CCCC1)C(=O)N1CCCCC1
class-assignment: 1 (yes)
//
chemical-smiles: COc1ccc(CCC[C@@H](C(=O)N2CCOCC2)[C@@H](C(=O)NO)N(C)C)cc1
class-assignment: 0 (no)
//
chemical-smiles: CNC(=O)[C@H](Cc1ccccc1)N(C)C(=O)[C@H](CC(C)C)[C@H](N)C(=O)NO
class-assignment: 1 (yes)
//
chemical-smiles: COc1ccc(CCC[C@@H](C(=O)N2CCN(c3ccccn3)CC2)[C@H](N)C(=O)NO)cc1
class-assignment: 0 (no)
//
chemical-smiles: Cc1ccc(S(=O)(=O)N[C@H](C(=O)NO)[C@@H](CC(C)C)C(=O)N2CCOCC2)cc1
class-assignment: 1 (yes)
//
chemical-smiles: COc1ccc(CCC[C@@H](C(=O)N2CCCCC2)[C@H](NC(=O)OC(C)(C)C)C(=O)NO)cc1
class-assignment: 0 (no)
//
chemical-smiles: COc1ccc(CCC[C@@H](C(=O)N2CCOCC2)[C@H](NC(=O)OC(C)(C)C)C(=O)NO)cc1
class-assignment: 0 (no)
//
chemical-smiles: CC(C)C[C@@H](C(=O)NC(C1CCCCC1)C1CCCCC1)[C@H](N)C(=O)NO
class-assignment: 1 (yes)
//
chemical-smiles: CC(C)C[C@@H](C(=O)N1CCOCC1)[C@H](N)C(=O)NO
class-assignment: 1 (yes)
//
chemical-smiles: COc1ccc(CCC[C@@H](C(=O)N2CCOCC2)[C@H](NS(=O)(=O)c2ccc(OC)cc2)C(=O)NO)cc1
class-assignment: 0 (no)
